System: PCSK9 mRNA
Test: PCSK9 siRNA screening in HepG2 cells (lipofectamine 2000 transfection, PCSK9 mRNA by Quantigene, normalized to GAP-DH)
Assay type: cell-based, human
Protocol: […] 24 hours after transfection HuH7 and HepG2 cells were lysed and PCSK9 mRNA levels were quantified with the Quantigene Explore Kit (Genosprectra, Dumbarton Circle Fremont, USA, cat. No. QG-000-02) according to the protocol. […] The activity of a given PCSK9 specific siRNA duplex was expressed as percent PCSK9 mRNA concentration in treated cells relative to PCSK9 mRNA concentration in cells treated with the control siRNA duplex. […]
In the oligonucleotide strings, read from the 5' end, every base follows the letter of its sugar. An asterisk marks phosphorothioate; unmarked linkages are phosphodiester. Other units and linkages are bracketed, terminal groups are in braces. A string of capitals states the bases alone. d = 2'-deoxy (DNA); m = 2'-O-methyl; r = 2'-OH (RNA)
Items are presented alongside their recorded IC50.
reported-property: IC50 (nM)

substance	measure-unit	assay-result
AD-9531: PCSK9 siRNA (sense rArArArUrCrGrArGrGrGrCrArGrGrGrUrCrArUdT*dT; antisense rArUrGrArCrCrCrUrGrCrCrCrUrCrGrArUrUrUdT*dT)	nM	0.53
AD-9680: dsRNA targeting the PCSK9 gene at 3530-3548; sense SEQ ID NO:1227, antisense SEQ ID NO:1228 (sense mUmUmCmUrArGrAmCmCmUrGmUmUmUmUrGmCmUmUdT*dT; antisense rArArGmCrArArArAmCrArGrGrUrCmUrArGrArAdT*dT)	nM	0.1
AD-9318: PCSK9 siRNA, less modified parent of AD-10794, AD-10795, AD-10797 (sense rUrCrArUrArGrGrCrCrUrGrGrArGrUrUrUrArUdT*dT; antisense rArUrArArArCrUrCrCrArGrGrCrCrUrArUrGrAdT*dT)	nM	0.4
AD-9524: PCSK9 siRNA (sense rGrCrUrGrGrUrGrCrUrArGrCrCrUrUrGrCrGrUdT*dT; antisense rArCrGrCrArArGrGrCrUrArGrCrArCrCrArGrCdT*dT)	nM	0.07
AD-9657: PCSK9 siRNA (sense rArArAmUmCrGrArGrGrGmCrArGrGrGmUmCrAmUdT*dT; antisense rArUrGrArCrCrCrUrGrCrCrCrUrCrGrArUrUrUdT*dT)	nM	0.66
AD-9644: PCSK9 siRNA (sense mUrGmCmUrGrArGrGmCmCrAmCrGrArGrGmUmCrAdT*dT; antisense rUrGrArCrCrUrCrGrUrGrGrCrCrUmCrArGmCrAdT*dT)	nM	2.6
AD-9610: PCSK9 siRNA (sense rArGrGrUrGrUrArUrCrUrCrCrUrArGrArCrArCdT*dT; antisense rGrUrGrUrCrUrArGrGrArGrArUrArCrArCrCrUdT*dT)	nM	0.04
AD-9671: PCSK9 siRNA (sense rArGmUmCrArArGrGrArGmCrAmUrGrGrArAmUmCdT*dT; antisense rGrArUrUrCmCrArUrGrCrUrCrCrUrUrGrArCrUdT*dT)	nM	2.5
AD-9607: PCSK9 siRNA (sense rGrGrArGrCrUrGrGrUrGrCrUrArGrCrCrUrUrGdT*dT; antisense rCrArArGrGrCrUrArGrCrArCrCrArGrCrUrCrCdT*dT)	nM	0.2
AD-9731: PCSK9 siRNA (sense mUrGrGmUrGrArArGrAmUrGrArGmUrGrGmCrGrAdT*dT; antisense rUrCrGrCmCrArCrUmCrArUrCrUrUmCrArCmCrAdT*dT)	nM	0.32
AD-9553: PCSK9 siRNA (sense rUrCrUrArGrArCrCrUrGrUrUrUrUrGrCrUrUrUdT*dT; antisense rArArArGrCrArArArArCrArGrGrUrCrUrArGrAdT*dT)	nM	0.02
AD-9688: PCSK9 siRNA (sense mUmCmUmCmCmUrArGrAmCrAmCmCrArGmCrAmUrAdT*dT; antisense mUrArUrGrCrUrGrGrUrGrUrCmUrArGrGrArGrAdT*dT)	nM	4.2
AD-9597: PCSK9 siRNA (sense rArGrCrCrArArGrCrCrUrCrUrUrCrUrUrArCrUdT*dT; antisense rArGrUrArArGrArArGrArGrGrCrUrUrGrGrCrUdT*dT)	nM	0.04
AD-9699: PCSK9 siRNA (sense rAmUrGrGmUmCrAmCmCrGrAmCmUmUmCrGrArGrAdT*dT; antisense rUrCrUrCrGrArArGrUrCrGrGrUrGrArCmCrArUdT*dT)	nM	2.5
AD-9605: PCSK9 siRNA (sense rUrGrGrUrGrArArGrArUrGrArGrUrGrGrCrGrAdT*dT; antisense rUrCrGrCrCrArCrUrCrArUrCrUrUrCrArCrCrAdT*dT)	nM	0.27
AD-9736: PCSK9 siRNA which targets only human and monkey PCSK9 message; SEQ ID NO:1517/1518 (chain 1 AGGuGuAucuccuAGAcAcTsT; chain 2 GUGUCuAGGAGAuAcACCUTsT; as printed in the source, key not given here)	nM	0.04
AD-9547: PCSK9 siRNA (sense rCrUrCrGrCrArGrUrCrArGrArGrCrGrCrArCrUdT*dT; antisense rArGrUrGrCrGrCrUrCrUrGrArCrUrGrCrGrArGdT*dT)	nM	0.2
AD-9314: unmodified parental PCSK9 siRNA, SEQ ID NO:1503/1504 (chain 1 rGrCrCrUrGrGrArGrUrUrUrArUrUrCrGrGrArAdT*dT; chain 2 rUrUrCrCrGrArArUrArArArCrUrCrCrArGrGrCdT*dT)	nM	0.04
AD-9573: PCSK9 siRNA (sense rArUrGrGrUrCrArCrCrGrArCrUrUrCrGrArGrAdT*dT; antisense rUrCrUrCrGrArArGrUrCrGrGrUrGrArCrCrArUdT*dT)	nM	1.6
